target: hGcgR (Homo sapiens, UniProt P47871); test: Functional cAMP activation in the presence of 0.1% casein (no HSA); format: cell-based; conditions: in the presence of 0.1% casein (no HSA); geometric mean; read-out: Relative cAMP EC50, hGcgR;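 further: intracellular cAMP rise after 30 min at 37 °C, read by HTRF against a cAMP standard curve, scaled from buffer only (0%) to maximal control ligand response (100%)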
Sequence (P47871 26-477): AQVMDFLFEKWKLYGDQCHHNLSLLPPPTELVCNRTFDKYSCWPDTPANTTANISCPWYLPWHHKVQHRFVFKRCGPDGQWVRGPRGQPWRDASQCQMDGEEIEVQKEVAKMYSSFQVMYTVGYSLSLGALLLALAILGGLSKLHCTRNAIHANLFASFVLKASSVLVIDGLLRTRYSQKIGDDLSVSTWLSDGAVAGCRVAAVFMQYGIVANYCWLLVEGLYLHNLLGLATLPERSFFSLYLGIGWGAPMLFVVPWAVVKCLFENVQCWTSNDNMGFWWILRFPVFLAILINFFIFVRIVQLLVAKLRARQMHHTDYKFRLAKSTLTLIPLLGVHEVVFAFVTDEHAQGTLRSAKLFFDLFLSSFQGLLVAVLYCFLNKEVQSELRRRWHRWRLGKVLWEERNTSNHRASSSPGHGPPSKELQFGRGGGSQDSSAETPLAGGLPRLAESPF
Starred links: 1 amine or outer side, 2 acyl side, 3 side chain; linkers in the order of their positions; H or OH if unused. Non-standard residues stand in square brackets, D forms with d. Groups on a side chain read outwards from the residue. *: point of attachment. C18 diacid = O=C(O)CCCCCCCCCCCCCCCCC(=O)*; γGlu = O=C(O)[C@H](CCC(=O)[*:2])N[*:1]; αMe4Pal = C[C@](N)(Cc1ccncc1)C(=O)O; Hyp = O=C(O)[C@@H]1C[C@@H](O)CN1; 4Pal = N[C@@H](Cc1ccncc1)C(=O)O; αMeL = CC(C)C[C@](C)(N)C(=O)O; Orn = NCCC[C@H](N)C(=O)O; AEEA = NCCOCCOCC(=O)O; Aib = CC(C)(N)C(=O)O
pEC50 by entry:
Reminder that pEC50 means the negative base-10 logarithm of the concentration expressed in mol/L.

SUBSTANCE: H-Y[Aib]QGTFTSDFS[Orn][αMeL]LDKK([AEEA-γGlu-C18 diacid])AQ[Aib]AFIEYLLEGGPSSGAP[Hyp]PGGS-NH2 [Example 236]
MEASURED ATTRIBUTE: pEC50
DATA VALUE: 8.65

SUBSTANCE: H-Y[Aib]QGTFTSDFS[Orn][αMeL]LDKK([AEEA-γGlu-C18 diacid])AQ[Aib]AFIEYLLE[dA]GPSSGAPPPSG[4Pal]-NH2 [Example 211]
MEASURED ATTRIBUTE: pEC50
DATA VALUE: 8.69

Sample H-Y[Aib]QGTFTSDFS[Orn][αMeL]LDKK([AEEA-γGlu-C18 diacid])AQ[αMe4Pal]DFIEYLIE[Aib]GPSSGAPPPSGS-NH2 [Example 880] — what was its pEC50?
8.45
